pEC50 overview
# System: T1, human CLDN18.2 (human)
# T1 construct: the HEK293 line was made with a GenScript plasmid; also called hCLDN18.2
# Protocol text: FACS on SNU601 cells
pEC50: −log10 of the molar value.

>  <Binder>
PR004949 (antibody, V domains shown, anti-CLDN18.2 HCAb: VH fused to human IgG1 Fc, no light chain; also called R1029P021C02) VH: EVQLVESGGGLVQPGGSLRLSCAASGFTFSAYWMHWVRQVPGRGLVWVSRINSDGSRTIYADSVKGRFTISRDNAKNTLYLQMNSLRAEDTAVYLCARGEDHDMLTGYPVRGQGTMVTVSS

>  <pEC50>
7.89

$$$$
>  <Binder>
PR004950 (antibody, V domains shown, anti-CLDN18.2 HCAb: VH fused to human IgG1 Fc, no light chain; also called R1029P021F07) VH: EVQLVESGGGLVQPGGSLRLSCAASGFTFSAYWMHWVRQVPGKGLVWVSRINSDGSRTIYADSVKGRFTISRDNAKNTLYLQMNSLRAEDTAVYYCARGEDHDILTGYPIRGQGTMVTVSS

>  <pEC50>
7.84

$$$$
>  <Binder>
PR004227 (antibody, V domains shown, anti-CLDN18.2 HCAb: VH fused to human IgG1 Fc, no light chain; also called R1029P(CG20)001B02) VH: EVQLVESGGGLVQPGGSLRLSCAASGFTFSSYWMHWVRQAPGKGLEWVSYINNDGSSTRYADSVKGRFTISRDNAKNTLYLQMNSLRAEDTAVYYCTEAPPYGNYERDYWGQGTLVTVSS

>  <pEC50>
7.55

$$$$
>  <Binder>
PR004536 (antibody, V domains shown, anti-CLDN18.2 HCAb: VH fused to human IgG1 Fc, no light chain; also called R1029P028A11) VH: EVQLVESGGGLVQPGGSLRLSCAASGFTFSSYWMYWVRQVPGKGLVWVSHINSDGSTTQYADSVKGRFTISRDNAKNMLYLQMNSLRAEDTAVYYCARDFPVLGGSHFDFQHWGQGTLVTVSS

>  <pEC50>
7.28

$$$$
>  <Binder>
PR004533 (antibody, V domains shown, anti-CLDN18.2 HCAb: VH fused to human IgG1 Fc, no light chain; also called R1029P021E10) VH: EVQLVESGGGLVQPGGSLRLSCAASGFTFSSYWMHWVRQVPGKGLVWVSRINSDGSRTIYADSVKGRFTISRDNAKNTLYLQMNSLRAEDTAVYYCARGEDHDILTGYPIRGQGTTVTVSS

>  <pEC50>
7.92

$$$$
